System: PC-3 prostate
Assay: NCI tumour cell line growth inhibition, 48 h
measuredEndpoint: GI50

For orientation, consider the following solved cases.
molecule: CN1C=CN(Cc2ccc(-c3ccccn3)nc2)[CH-]1.CN1C=CN(Cc2ccc(-c3ccccn3)nc2)[CH-]1.[Au+3]
measuredEndpoint: GI50
result: 922 nM

molecule: N#CC(C#N)=C/C=C/c1cccc([N+](=O)[O-])c1
measuredEndpoint: GI50
result: 2090 nM

molecule: C=C(C)[C@@H]1CC[C@]2(C#N)CC[C@]3(C)[C@H](CC[C@@H]4[C@@]5(C)CCCNC(C)(C)[C@@H]5CC[C@]43C)[C@@H]12
measuredEndpoint: GI50
result: 2700 nM

Problem: If you can, please state the reported GI50 value of Nc1ccccc1C#Cc1ccccc1C#CCCCCO .
Solution: 27800 nM

Problem: Consider the molecule COc1ccccc1OCC(O)CO (stereo not drawn) and give its measured GI50.
Solution: > 100000 nM

Problem: Can you look up the measured GI50 of CCN(CC)c1ccc(/C=N\NC(=O)c2cccc(Nc3ccnc(C(F)(F)F)c3)c2)c(O)c1 for me?
Solution: 646 nM

Problem: What value of GI50 has been recorded for this entry: COc1cc(SC)ccc1C(=O)N1CCCC(C)C1 (stereo not drawn)
Solution: > 100000 nM

Problem: Field request: GI50 | item: O=C(/C=C/c1cccs1)Nc1ncc(Cc2ccccc2F)s1
Solution: 261 nM

---

Test system: HCT-15 colon
Assay: NCI tumour cell line growth inhibition, 48 h; in the data active = GI50 below about 0.43 µM; inactive = the rest
Give your call using only these classes: active, inactive

molecule: O=C(/C=C/c1cccs1)Nc1ncc(Cc2ccccc2F)s1
targetOrSystem: HCT-15 colon
group: active
--
molecule: O=C(O)CCN1C(=O)/C(=C/C(Cl)=C/c2ccccc2)SC1=S
targetOrSystem: HCT-15 colon
group: inactive
--
molecule: CCN(CC)c1ccc(/C=N\NC(=O)c2cccc(Nc3ccnc(C(F)(F)F)c3)c2)c(O)c1
targetOrSystem: HCT-15 colon
group: active
--
molecule: NC(=O)c1ccc(-c2c3ccccc3cc3c2ccc2ccccc23)cc1
targetOrSystem: HCT-15 colon
group: inactive

Please find the next molecule below.
Problem: So what was the verdict on O=C(O)C(O)C(O)C1[O][Sb][O]C1CO (stereo not drawn) in this test?
Solution: inactive

---

Reported TGI values are given for each entry in this list.
System: MCF7 breast
Assay: NCI tumour cell line growth inhibition, 48 h

Observe how each entry below is paired with its result.
molecule: COc1cc([N+](=O)[O-])c2ncccc2c1O
targetOrSystem: MCF7 breast
TGI: > 100 µM
--
molecule: CCOC(=O)C1C2C1C1C(C(=O)OCC)C21 (stereo not drawn)
targetOrSystem: MCF7 breast
TGI: > 100 µM

For the next question, use this molecule.
Problem: For CC(C)(C)c1ccc(C(O)(c2ccc(C(C)(C)C)cc2)c2ccc(C(C)(C)C)cc2)cc1 , what is its reported TGI?
Solution: > 100 µM

---

Tested on: HL-60(TB) leukemia
Assay: NCI tumour cell line growth inhibition, 48 h
measuredEndpoint: GI50

molecule: COc1ccccc1OCC(O)CO (stereo not drawn)
GI50: > 100 µM
--
molecule: Cc1ccc(Nc2ccnc(Nc3cccc(C(N)=O)c3)n2)cc1O
GI50: 8.1 µM

Now let's try a different one.
Problem: I'd like to know its GI50. The molecule in question is NC(=O)c1ccc(-c2c3ccccc3cc3c2ccc2ccccc23)cc1
Solution: 2.14 µM
